# system-tested: T1, Purified recombinant human CD26 (rhDipeptidyl peptidase IV), R&D Systems CAT #1180-SE (human, UniProt P27487 29-766)
# T1 construct: Bought recombinant protein; also called hu-CD26; soluble human CD26
# T1 sequence (P27487 29-766 limits assumed): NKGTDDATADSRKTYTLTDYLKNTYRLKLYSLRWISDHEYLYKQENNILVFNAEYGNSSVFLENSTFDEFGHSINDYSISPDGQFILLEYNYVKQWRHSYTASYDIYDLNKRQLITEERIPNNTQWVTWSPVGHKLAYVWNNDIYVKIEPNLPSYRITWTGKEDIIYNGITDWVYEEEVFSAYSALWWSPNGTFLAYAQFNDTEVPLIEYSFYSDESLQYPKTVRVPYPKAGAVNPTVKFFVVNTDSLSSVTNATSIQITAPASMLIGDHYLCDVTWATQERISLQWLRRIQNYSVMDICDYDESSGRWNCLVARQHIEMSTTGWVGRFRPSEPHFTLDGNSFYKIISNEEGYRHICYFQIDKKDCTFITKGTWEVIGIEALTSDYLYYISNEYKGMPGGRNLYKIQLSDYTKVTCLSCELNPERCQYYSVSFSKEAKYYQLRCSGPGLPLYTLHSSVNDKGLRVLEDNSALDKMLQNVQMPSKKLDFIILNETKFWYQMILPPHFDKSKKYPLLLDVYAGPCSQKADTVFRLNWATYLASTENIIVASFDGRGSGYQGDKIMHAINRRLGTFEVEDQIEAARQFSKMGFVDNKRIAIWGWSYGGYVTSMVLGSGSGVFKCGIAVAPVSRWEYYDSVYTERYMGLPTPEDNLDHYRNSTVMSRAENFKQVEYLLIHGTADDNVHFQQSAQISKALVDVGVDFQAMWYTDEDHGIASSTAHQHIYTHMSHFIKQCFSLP
# method-notes: SPR (Biacore), Fab
// reported kon per item

- binder: "Fab comprising X379 VL and CM03 VH (Fab, V domains shown, Fab made in E. coli) VH: QVKLQESGPGLVQPSQTLSITCTVSGFSLTTYGVHWVRQSPGKGLEWLGVIWGGGRTDYDAAFISRLSISKDNSKSQVFFKMNSLQANDTAIYYCVRNRHDWFDYWGQGTTVTVSS VL: DILLTQSPSSLSATPGERATITCRASQGIRNNLNWYQQKPGQAPRLLIYYSSNLQSGVPSRFSGSGSGTDFTLTISRLQPEDVAAYYCQQSIKLPFTFGSGTKVEIK"
  kon, M⁻¹ s⁻¹: 578000
- binder: "Fab comprising X378 VL and CM03 VH (Fab, V domains shown, Fab made in E. coli) VH: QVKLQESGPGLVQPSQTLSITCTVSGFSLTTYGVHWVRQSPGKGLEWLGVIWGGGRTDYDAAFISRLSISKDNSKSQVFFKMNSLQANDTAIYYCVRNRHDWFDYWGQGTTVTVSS VL: DIEMTQSPSSLSASAGERVTISCRASQGIRNSLNWYQQKPGQAPRLLIYYSSNLQTGVPSRFSGSGSGTDFTLTISRLQAEDFATYYCQQSNKLPFTFGSGTKVEIK"
  kon, M⁻¹ s⁻¹: 285000
- binder: "Fab comprising X377 VL and CM03 VH (Fab, V domains shown, Fab made in E. coli; also called X377 Fab) VH: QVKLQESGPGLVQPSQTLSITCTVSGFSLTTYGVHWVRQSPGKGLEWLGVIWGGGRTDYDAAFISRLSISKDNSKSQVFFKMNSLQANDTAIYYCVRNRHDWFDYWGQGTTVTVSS VL: EIELTQSPSSLSVSLGDRVTISCSASQDIRNNLNWYQQKPGQAPRLLIYYSSNLQTGVPARFSGSGSGTDFTLTISRLEPEDVAAYYCQQSIKLPFTFGSGTKVEIK"
  kon, M⁻¹ s⁻¹: 317000
- binder: "Fab comprising X380 VL and CM03 VH (Fab, V domains shown, Fab made in E. coli) VH: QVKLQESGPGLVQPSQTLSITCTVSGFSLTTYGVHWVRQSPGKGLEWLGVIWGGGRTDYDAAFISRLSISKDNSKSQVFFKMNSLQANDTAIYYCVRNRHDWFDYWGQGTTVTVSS VL: EIEMTQSPSSLSVSAGERATISCSASQDIRNSLNWYQQKPGQAPRLLIYYSSNLHTGVPARFSGSGSGTDFTLTISRLEPEDVAIYYCQQSNKLPLTFGSGTKVEIK"
  kon, M⁻¹ s⁻¹: 294000
